- experimental.target: PDE6
- protocol.notes: In vitro activity against PDE isoenzyme
- Assay type: biochemical
- measurement.context: PDE6

{"compound": "CCCOc1ccc(S(=O)(=O)N(C)CCN2CCCC2)cc1-c1nc2c(CCC)nn(C)c2c(=O)[nH]1 [Maleate of compound Z]", "unit": "nM", "IC50": 45.2}

---

- experimental.target: PDE5 (Homo sapiens)
pIC50: −log10 of the molar value.
measurement.label: pIC50

{"molecule": "CCCOc1ccc(S(=O)(=O)N(C)CCN2CCCC2)cc1-c1nc2c(CCC)nn(C)c2c(=O)[nH]1 [Maleate of compound Z]", "experimental.target": "PDE5 (Homo sapiens)", "measured.value": 8.64}
